# PROTOCOL_TEXT: Clearance in rat at 5 mg/kg, iv
# Assay type: ADME, organism-based
# SETTINGS: in vivo
TEST_READOUT: clearance (mL/min/kg)

>  <SMILES_REPRESENTATION>
C=CC(=O)Nc1cccc(-c2c(-c3ccccc3)oc3ncnc(N[C@H](CO)c4ccccc4)c23)c1

>  <clearance / mL/min/kg>
76.5

$$$$
>  <SMILES_REPRESENTATION>
CN(C)C/C=C/C(=O)Nc1cc2c(Nc3ccc(F)c(Cl)c3)ncnc2cc1O[C@H]1CCOC1

>  <clearance / mL/min/kg>
79.2

$$$$

---

# PROTOCOL_TEXT: Volume of distribution at steady state in rat at 5 mg/kg, iv
# Assay type: ADME, organism-based
# SETTINGS: in vivo, read-out: Vdss
TEST_READOUT: Vd (L/kg)

(a) C=CC(=O)Nc1cccc(-c2c(-c3ccccc3)oc3ncnc(N[C@H](CO)c4ccccc4)c23)c1
(b) CN(C)C/C=C/C(=O)Nc1cc2c(Nc3ccc(F)c(Cl)c3)ncnc2cc1O[C@H]1CCOC1 [AFATINIB]
# query: argmin of Vd over a and b // return label of chosen record a
(a: 2.3 L/kg, b: 28.7 L/kg)

These entries and their values trace back to ChEMBL document CHEMBL4414600.
